# targetOfAssay: T1, Recombinant Human TNF-α/TNFSF1A (human, UniProt P01375 77-233)
# T1 construct: Bought reagent (R&D Systems 210-TA); also called hTNF-α; huTNF-α
# T1 sequence (P01375 77-233 limits assumed): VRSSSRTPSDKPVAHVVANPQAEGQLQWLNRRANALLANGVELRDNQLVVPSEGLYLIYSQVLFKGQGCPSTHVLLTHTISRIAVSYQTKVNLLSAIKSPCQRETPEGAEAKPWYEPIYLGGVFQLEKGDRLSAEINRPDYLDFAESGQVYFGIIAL
# assayComment: SPR (Biacore), antibody captured, TNF-α in solution
outcomeMeasure: koff (s⁻¹)
Return type: number; implicit unit s⁻¹.

binder: AB258 (antibody, V domains shown, also called hMAK195VH.2a / hMAK195VL.2) VH: EVQLVESGGGLVQPGGSLRLSCAVSGFTLSDYGVNWVRQAPGKGLEWLGMIWGDGSTDYDSTLKSRLTISKDNSKSTIYLQMNSLRAEDTAVYYCAREWHHGPVAYWGQGTLVTVSS VL: EIVMTQSPATLSLSPGERATLSCKASQAVSSAVAWYQQKPGQAPRLLIYWASTRHTGIPARFSGSGSGTDFTLTISSLQPEDFAVYYCQQHYSTPFTFGQGTKLEIK
numericReadout: 0.000244

binder: AB257 (antibody, V domains shown, also called hMAK195VH.2a / hMAK195VL.1a) VH: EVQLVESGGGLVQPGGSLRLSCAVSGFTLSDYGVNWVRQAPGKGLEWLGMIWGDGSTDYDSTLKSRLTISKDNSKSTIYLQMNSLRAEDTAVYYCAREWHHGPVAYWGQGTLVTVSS VL: DIQMTQSPSSLSASVGDRVTITCKASQAVSSAVAWYQQKPGKSPKLLIYWASTRHTGVPSRFSGSGSGTDFTLTISSLQPEDFATYYCQQHYSTPFTFGQGTKLEIK
numericReadout: 0.000217

Q: Field request: koff | item: AB243 (antibody, V domains shown, also called hMAK195VH.1 / hMAK195VL.2a) VH: EVQLQESGPGLVKPSETLSLTCTVSGGSISDYGVNWIRQPPGKGLEWIGMIWGDGSTDYDSTLKSRVTISVDTSKNQFSLKLSSVTAADTAVYYCAREWHHGPVAYWGQGTLVTVSS VL: EIVMTQSPATLSLSPGERATLSCKASQAVSSAVAWYQQKPGQSPRLLIYWASTRHTGVPARFSGSGSGTDFTLTISSLQPEDFAVYYCQQHYSTPFTFGQGTKLEIK
A: 0.0027

Q: Field request: koff | item: AB262 (antibody, V domains shown, also called hMAK195VH.2b / hMAK195VL.2) VH: EVQLVESGGGLVQPGGSLRLSCAASGFTLSDYGVNWVRQAPGKGLEWVSMIWGDGSTDYDSTLKSRFTISKDNSKNTLYLQMNSLRAEDTAVYYCAREWHHGPVAYWGQGTLVTVSS VL: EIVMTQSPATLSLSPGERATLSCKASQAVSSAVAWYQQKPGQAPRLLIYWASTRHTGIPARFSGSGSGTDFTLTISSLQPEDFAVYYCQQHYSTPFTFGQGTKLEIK
A: 0.00029

Q: Field request: koff | item: AB260 (antibody, V domains shown, also called hMAK195VH.2b / hMAK195VL.1) VH: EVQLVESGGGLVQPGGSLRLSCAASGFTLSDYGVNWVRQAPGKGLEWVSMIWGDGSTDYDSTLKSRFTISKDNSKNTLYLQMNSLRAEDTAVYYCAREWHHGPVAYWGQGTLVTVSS VL: DIQMTQSPSSLSASVGDRVTITCKASQAVSSAVAWYQQKPGKAPKLLIYWASTRHTGVPSRFSGSGSGTDFTLTISSLQPEDFATYYCQQHYSTPFTFGQGTKLEIK
A: 0.00023

Q: Field request: koff | item: AB240 (antibody, V domains shown, also called hMAK195VH.1 / hMAK195VL.1) VH: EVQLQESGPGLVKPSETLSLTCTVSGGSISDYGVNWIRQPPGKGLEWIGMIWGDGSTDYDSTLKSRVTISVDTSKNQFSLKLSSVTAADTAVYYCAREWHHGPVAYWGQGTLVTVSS VL: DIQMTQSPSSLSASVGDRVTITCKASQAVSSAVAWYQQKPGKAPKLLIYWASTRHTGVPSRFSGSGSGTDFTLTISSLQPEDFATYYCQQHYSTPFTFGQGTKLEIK
A: 0.00228

Q: Field request: koff | item: AB241 (antibody, V domains shown, also called hMAK195VH.1 / hMAK195VL.1a) VH: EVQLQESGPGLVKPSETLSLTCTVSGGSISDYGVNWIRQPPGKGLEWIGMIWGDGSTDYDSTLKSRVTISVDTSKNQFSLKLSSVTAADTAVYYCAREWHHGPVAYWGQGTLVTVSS VL: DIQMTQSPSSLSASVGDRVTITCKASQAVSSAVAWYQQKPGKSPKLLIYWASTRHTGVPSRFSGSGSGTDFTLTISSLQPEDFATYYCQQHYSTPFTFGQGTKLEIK
A: 0.0013

Q: Field request: koff | item: AB259 (antibody, V domains shown, also called hMAK195VH.2a / hMAK195VL.2a) VH: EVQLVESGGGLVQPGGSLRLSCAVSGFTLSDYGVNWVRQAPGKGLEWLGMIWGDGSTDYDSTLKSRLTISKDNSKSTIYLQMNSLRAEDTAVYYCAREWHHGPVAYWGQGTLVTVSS VL: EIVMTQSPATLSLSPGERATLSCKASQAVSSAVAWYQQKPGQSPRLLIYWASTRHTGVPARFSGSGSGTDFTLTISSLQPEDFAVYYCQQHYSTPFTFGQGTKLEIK
A: 0.000203

Q: Field request: koff | item: AB247 (antibody, V domains shown, also called hMAK195VH.1a / hMAK195VL.2a) VH: EVQLQESGPGLVKPSETLSLTCTVSGFSLSDYGVNWVRQPPGKGLEWLGMIWGDGSTDYDSTLKSRLTISKDNSKSQISLKLSSVTAADTAVYYCAREWHHGPVAYWGQGTLVTVSS VL: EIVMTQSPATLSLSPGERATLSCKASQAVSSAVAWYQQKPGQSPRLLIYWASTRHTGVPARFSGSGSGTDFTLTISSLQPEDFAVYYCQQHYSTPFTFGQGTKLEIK
A: 0.00026

Q: Field request: koff | item: AB251 (antibody, V domains shown, also called hMAK195VH.1b / hMAK195VL.2a) VH: EVQLQESGPGLVKPSETLSLTCTVSGFSLSDYGVNWIRQPPGKGLEWIGMIWGDGSTDYDSTLKSRVTISKDTSKNQFSLKLSSVTAADTAVYYCAREWHHGPVAYWGQGTLVTVSS VL: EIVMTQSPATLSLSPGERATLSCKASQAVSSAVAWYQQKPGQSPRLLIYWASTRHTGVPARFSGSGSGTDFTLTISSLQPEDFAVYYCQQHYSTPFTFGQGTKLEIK
A: 0.000425
